Reported melting point values for the following compounds.

COMPOUND | melting point
O=C(CC1CC2CCC1C2)Nc1ccccc1C(c1ccc(O)cc1)c1ccc(O)cc1 (stereo not drawn) | 125 to 127 °C
NC(=O)c1cc(OCCNCC(O)COc2ccccc2-c2cc3ccccc3[nH]2)ccc1O (stereo not drawn) | 93 to 95 °C
O=C(O)c1cc(Sc2nc3cc(Cl)ccc3[nH]2)c2[nH]c(=O)[nH]c2c1 | 326 to 330 °C

----------
TEST READOUT: melting point (°C)

COMPOUND | READOUT NUMBER
CC12CCC(C(=Cc3ccc(C=O)cc3)C1=O)C2(C)C (stereo not given) | 116
O=C1c2cc(Cl)ccc2NCN1CCN1CCOCC1 | 82

----------
As shown below, each of these compounds has a reported melting point value.

COMPOUND | melting point
CCC(OC(C)=O)C(=O)Nc1ccc(I)cc1Cl (centres undefined) | 156 to 158 °C
COc1cccc2c1OCC(C(=O)O)O2 (centres undefined) | 85 to 87 °C
CC(COc1ccc(C(N)=O)c(O)c1)NCC(O)COc1ccc(NS(C)(=O)=O)cc1 (centres undefined) | 147 to 150 °C
c1ccc(Cn2c3ccccc3c3ccsc32)cc1 | 96 to 98 °C
COc1ccc(CC(=O)N2CCCCC2CC(c2ccccc2)c2ccccc2)cc1OC (centres undefined) | 113 to 114 °C
COc1cc2c(c3c1OC(C)(C)C3)C(c1cccc(N3CCN(C(=O)OC(C)(C)C)S3(=O)=O)c1)=NC(C)(C)C2 | 157 to 159 °C
O=C1NCCn2c1nc1c2CCCC1 | > 250 °C
O=C1COC2(CCN(CCc3c[nH]c4ccccc34)CC2)CN1 | 48 to 50 °C
O=c1c2c(Cl)cc(Cl)cc2n(Cc2ccccc2)c(=O)n1Cc1ccc(F)cc1 | 148 to 151 °C
CCOC(=O)c1cnc2ccc(C(F)(F)F)cc2c1O | > 260 °C
COc1cnnc(Cl)c1 | 98 to 100 °C
CC(C)(C)C(=O)c1c[nH]c2ncc(-c3ccc(C(=O)NC4CCCC4)s3)nc12 | > 300 °C
COc1cc(OC)c(-c2cc3ccccc3[nH]2)cc1C=CC(=O)c1ccc(S(=O)(=O)Nc2ccccn2)cc1 | 206 to 208 °C
CCc1nc2c(N)nc3ccccc3c2n1CC1(O)CCCCC1 | 217 to 218 °C
CCc1cc(OCc2ccc(-c3ccccc3-c3nnn(C(c4ccccc4)(c4ccccc4)c4ccccc4)n3)cc2)c2nc(OC)ccc2n1 | 145 to 148 °C
O=C(c1cc2ccc(Br)cc2o1)C12CC3CC(CC(C3)C1)C2 | 128 to 130 °C
COc1cccc(OC2COc3ccc(OCc4ccccc4)cc3C2=O)c1 (centres undefined) | 98 to 100 °C
CCCCCc1cc(-c2cc(=O)c3c(O)cc(O)cc3o2)ccc1OC | 166 to 168 °C
Cc1ncsc1C(C)(O)c1ccccc1 (centres undefined) | 128 to 130 °C

----------
TEST READOUT: melting point

MOLECULE | RESULT
CN=c1[nH]c(-c2cc(C)c(OCCCc3cc(C)no3)c(C)c2)no1 | 126 to 127 °C
O=C(Cc1ccc(O)cc1)OCc1ccccc1 | 70 to 72 °C
COc1ccc(C(=O)Nc2c(Cl)cncc2Cl)c2c1OCC2CC(=O)O (centres undefined) | 259 to 263 °C
Cc1cc(COc2nn(Cc3ccccc3)cc2C(=O)O)ccc1OCc1nc(-c2ccco2)oc1C | 176 to 177 °C
Cc1ncn(-c2ccc(N)cc2F)n1 | 122 to 125 °C
C=CCSc1ccc(OC)nn1 | 25 to 27 °C
O=C1CCCCN1CCc1c[nH]c2ccc(Cl)cc12 | 155 °C
COc1ccc(C(C)(C)C)c(O)c1C(=O)Oc1ccccc1 | 74 to 75 °C
COc1cc(Cl)ccc1N(Cc1cccnc1)S(C)(=O)=O | 121 to 123 °C
NC(=O)C1=C(c2ccccc2)C(c2ccccc2)OC1=O (centres undefined) | 125 to 127 °C
COC/C=C(C)/C=C/C(F)=C(C)/C=C/c1c(C)sc(C)c1C | 117 to 118 °C
CCON=C1CN(c2nc3c(cc2F)c(=O)c(C(=O)O)cn3C2CC2)CC12CN(C(=O)OC(C)(C)C)C2 | 261 to 262 °C
NC(=Nc1ccc(N2CCN(C(=O)NCCCCC3CCSS3)CC2)cc1)c1cccs1 (centres undefined) | 201 to 202 °C
COc1cc(/C=C2/C(C)=C(CC(=O)O)c3cc(F)ccc32)cc(OC)c1OC | 149 to 152 °C
CC(C)(C)OC(=O)NC(Cc1ccccc1)C(O)CNCC(O)C(Cc1ccc(OCc2ccccc2)cc1)NC(=O)OCc1ccccc1 (centres undefined) | 154 to 156 °C
CCOc1ccc(C=CC(=O)N2CCc3c([nH]c4ccccc34)C2c2ccc3c(c2)OCO3)cc1 (centres undefined) | 199 to 200 °C
CCN(CCNC(=O)c1cnc2cc(I)ccc2n1)CCNc1cccc(Br)n1 | 49 to 51 °C
O=Cc1cc(-n2nnnc2C(F)(F)F)ccc1OCC1CC1 | 80 to 82 °C
Clc1nc2cc(Cl)c(Cl)cc2[nH]1 | 212 to 214 °C
COC(=O)c1cccc2c1cc1n2CCCC1 | 102 to 103 °C
O=C1NC(=O)C(Cc2ccc(OCCn3ncc4ccccc4c3=O)cc2)S1 (centres undefined) | 165 °C
CC(=O)Cc1ccc(Oc2ccc(C(F)(F)F)cc2)cc1 | 88 to 90 °C
N#Cc1c(N2CCN(C(=O)c3ccc4c(c3)OCO4)CC2)c2ccccc2n(Cc2ccc(F)cc2)c1=O | 140 to 160 °C
Cc1nc(C2CC2)nc(C)c1N1CCCn2c1nc1c(Cl)ccc(C(OC(F)F)C(F)(F)F)c12 (centres undefined) | 191 to 193 °C
CC(C)NC(=O)NC1CCCc2sccc21 (centres undefined) | 223 to 226 °C
COc1cnc(CSc2nc3cc(OC(F)(F)C(F)F)ccc3[nH]2)cc1OC | 125 to 127 °C
CC1C(C)(C)C2=C(c3oncc3CC2)C1(C)C (centres undefined) | 81 °C
CCOC(=O)c1c(O)nsc1C | 69 °C
COc1cc(C(O)CS(C)(=O)=O)cc(OC)c1-n1cccc1 (centres undefined) | 192 °C

----------
COMPOUND | melting point
O=C(O)c1c(Cl)ccc2cc(C(F)(F)F)c(C(F)(F)F)nc12 | 108 to 111 °C
COc1ccc(CN2C(=O)C(C)(c3cc(COCCN4CCOCC4)ccc3Cl)c3cc(Cl)ccc32)c(OC)c1 (stereo not drawn) | 81 °C
CCOCCOc1cc(C(O)C#Cc2ccc(C(=O)O)cc2)cc2c1C(C)(C)CCC2(C)C (stereo not drawn) | 158 °C
CS(=O)(=O)c1ccc(-c2oc3ccccc3c(=O)c2-c2ccc(F)c(Cl)c2)cc1 | 196 °C
CS(=O)(=O)c1nccc(-n2cncn2)n1 | 135 to 136 °C
Nc1ccccc1C(=O)c1ccccn1 | 145 to 146 °C
O=C(Oc1ccc(Oc2ccc(C(F)(F)F)cn2)cc1)N1CCN(c2ncccc2C(F)(F)F)CC1 | 131 to 132 °C
COC(=O)CCc1oc2ccc(C#N)cc2c1C(=O)c1ccc(O)cc1 | 156 to 158 °C
CCOc1ccc(-c2ccc3c(c2)C=C(C(=O)O)CCN3S(C)(=O)=O)cc1F | 237 to 239 °C
C[C@H]1[C@@H]2C(=O)N(Cc3ccccc3)C(=O)[C@@H]2[C@H](c2ccc(C#N)cc2)N1C (racemic) | 188 to 190 °C
CNC(=O)N1N=C(c2ccc(N)cc2)c2cc(OC)ccc2CC1C (stereo not drawn) | 190 to 191 °C
CC(O)=C(C#N)C(=O)Cc1ccc(Cl)cc1 | 50 to 53 °C
CCCC(Oc1ccc(Cl)c(C)c1)C(=O)NCc1ccccc1 (stereo not drawn) | 75 to 78 °C
CCc1nc2c(c(C)c(C)n3nnnc23)n1CCOCCN | 181 to 183 °C
CCN(CC)C(=O)C(=NO)c1c[nH]c2c1ccc1c3ccccc3[nH]c12 | 268 to 269 °C
Cn1cc(-c2cccc(C(F)(F)F)c2)c(=O)c(-c2ccccc2C(F)(F)F)c1 | 135 to 138 °C
Nc1nc(N)c2cc(Sc3ccc(Cl)c(Cl)c3)ccc2n1 | 232 to 234 °C
CCSc1nc(NCc2ccccc2)c2ncn(C3OC(CO)C(O)C3O)c2n1 (stereo not drawn) | 172 to 174 °C
CC(=O)NC(Cc1c[nH]c2ccccc12)C(=O)OC(c1ccccc1)c1ccccc1 (stereo not drawn) | 147 to 148 °C
Cc1ccc2nc(/C=C/c3ccccc3)n(-c3ccccn3)c2c1 | 164 to 165 °C
O=C(O)Cc1ccc2c(c1)CC(NS(=O)(=O)c1ccc(Cl)cc1)C2 (stereo not drawn) | 154 to 155 °C
CCCc1c(O)c(F)cc(C(C)=O)c1O | 129 to 130 °C
COc1ccc2[nH]cc(CCN3CCC(Oc4ccc(F)cc4)CC3)c2c1 | 132 to 134 °C
Cc1cc(C)cc(CC(=O)Nc2[nH]c(=O)[nH]c(=O)c2C(C)C)c1 | 126 to 127 °C
CN1C(=O)n2c(nc3ccccc32)NC12CCCC2 | 180 to 182 °C
O=C(NCCc1ccccc1)c1ccccn1 | 58 to 59 °C
OCc1cc(F)nc(F)c1F | 48 to 49 °C
Cc1ncn(-c2cc(C(Cl)(Cl)Cl)c3cc(C(Cl)(Cl)Cl)ccc3n2)n1 | 169 to 170 °C
